Values were extracted from ChEMBL document CHEMBL1201862.

Test system: KM12
experimentNotes: NCI tumour cell line growth inhibition, 48 h
The source made the active and inactive calls. Cut-off read from the data, not from the text of the source: active = GI50 up to about 1.1 µM and inactive = higher.
resultType: GI50

Query :: // lookup GI50 | system=KM12 | key= Cc1cccc2ns[s+]c12
Result :: > 100 µM (inactive)

Query :: Provide the documented GI50 with KM12 as the system for CCCCN(CCCC)C(=Nc1ccccc1)N(CCCC)CCCC
Result :: 3.7 µM (inactive)

Query :: Give recorded GI50 with KM12 for the following compound: COC(=O)N/N=C(\C(=O)Nc1cccc([N+](=O)[O-])c1)c1nc2ccc([N+](=O)[O-])cc2nc1O
Result :: 29.4 µM (inactive)

Query :: Please provide the recorded GI50 for CC(NS(=O)(=O)c1ccc([N+](=O)[O-])cc1)C(=O)O (stereo unspecified) , tested on KM12.
Result :: > 100 µM (inactive)

Query :: Lookup: GI50 / KM12 / O=C(O)c1cc(NCc2cc(O)ccc2O)ccc1O
Result :: > 100 µM (inactive)

Query :: Query GI50 on KM12 for N#CC1=C(S)N(C2OC(CO)C(O)C(O)C2O)C(c2ccccc2)=CC1c1ccco1 (stereo unspecified)
Result :: 41.9 µM (inactive)

---

For each record, write down the corresponding GI50.
System: A498
experimentNotes: NCI tumour cell line growth inhibition, 48 h
Calls of active or inactive are those of the source. Cut-off read from the data, not from the text of the source: active = GI50 up to about 1.1 µM and inactive = higher.

Query :: Fill in: GI50 of Cc1ccc(S(=O)(=O)N/N=C2\CCCCC23CCC(=O)NC3)cc1 (configuration not stated) is ___
Result :: > 100 µM (inactive)

Query :: May I ask what GI50 has been recorded for Cc1ccc(C(=O)N2CCN(C(=O)c3ccc(C)cc3)c3ccccc32)cc1 ?
Result :: 5.2 µM (inactive)

Query :: Consider the compound C[C@H](O)CCC(=O)c1ccoc1 and give its measured GI50.
Result :: > 100 µM (inactive)

Query :: # input compound: CN(C)CC(C)(C)/C(=N\Nc1ccccc1)c1ccccc1 ; wanted: its GI50
Result :: 82.8 µM (inactive)

Query :: If you can, please state the reported GI50 value of COc1c(-c2ccc(O)c(O)c2)oc2c(O)c(O)cc(O)c2c1=O .
Result :: > 100 µM (inactive)

Query :: Could you tell me which GI50 is on file for CCOC(=O)c1cc(-n2nnc3ccccc32)cn1C ?
Result :: > 10 µM (inactive)

Query :: Reported GI50 for Cc1ccc2nc(-c3ccc(NC(=O)c4ccc(N)cc4)c(S(=O)(=O)O)c3)sc2c1 : what is it?
Result :: > 100 µM (inactive)

Query :: Need GI50, item O=C1c2cccc3cc([N+](=O)[O-])cc(c23)C(=O)N1c1ccc(OCCN2CCCC2)cc1
Result :: 12.4 µM (inactive)

Query :: // lookup GI50 for O=C1[C@@H]2C3C=CC([C@H]4C(=O)N(CO)C(=O)[C@@H]34)[C@@H]2C(=O)N1CO
Result :: > 100 µM (inactive)

Query :: Query: GI50; subject: CC(C)(C)c1cc(OCc2nnc3sc(S)nn23)c(Cl)cc1OCc1nnc2sc(S)nn12
Result :: 39.6 µM (inactive)

Query :: Which GI50 is listed for CN(C(=O)C12C3C4C5C3C1(C(=O)C13C6C7C8C6C1C8C73)C5C42)C(C)(C)C (configuration not stated) ?
Result :: > 50 µM (inactive)

Query :: Given CCOC(=O)NC(Nc1ccc(S(=O)(=O)Nc2nc(C)cc(C)n2)cc1)(C(=O)OCC)C(F)(F)F (configuration not stated) , state its recorded GI50.
Result :: > 100 µM (inactive)

Query :: Please give the measured GI50 for this compound: c1ccc2c(c1)N=C(c1cccc3ccccc13)CC(c1cccc3ccccc13)S2 (configuration not stated)
Result :: 7.94 µM (inactive)

Query :: Item CN(C)CCCN1CCc2c([nH]c3ccccc23)C1c1cccnc1 (configuration not stated) has what recorded GI50?
Result :: > 100 µM (inactive)

Query :: What GI50 value was documented for this compound, O=C1c2cc([N+](=O)[O-])ccc2-c2ccc3c4ccc5c6c(ccc(c7ccc1c2c73)c64)C(=O)c1cc([N+](=O)[O-])ccc1-5 ?
Result :: 4.03 µM (inactive)

Query :: # get_value(readout='GI50', item= Clc1ccc(SCCCCCCCCCCSc2ccc(Cl)cc2)cc1 )
Result :: > 73.8 µM (inactive)

Query :: I'd like to know its GI50. The compound in question is Cc1cccc2c(=O)c3cccc(CC(=O)O)c3oc12
Result :: > 100 µM (inactive)

Query :: For the compound O=C1Nc2cccc(Cl)c2/C1=C\c1c(Cl)nc2sccn12 , what GI50 is on record?
Result :: 33.1 µM (inactive)

Query :: What GI50 value was documented for this compound, COC(=O)/C=C\C(C#N)(C#N)/N=C/c1cccc(OC)c1 ?
Result :: 18.6 µM (inactive)

Query :: Sample O=C1CCC2(CC1CCSc1ccccc1)OCCO2 (configuration not stated) — what was its GI50?
Result :: > 100 µM (inactive)

Query :: Form field: reported GI50 of CC(C)OCN/C(N)=N\C#N
Result :: > 100 µM (inactive)

Query :: Can you look up the measured GI50 of Oc1c(Cl)cc2cc1-c1cc(cc(Cl)c1O)CCc1c(cc(Cl)c(O)c1Cl)-c1cc(Cl)c(c(Cl)c1O)/C=C\2 for me?
Result :: 14.3 µM (inactive)
